# credit: patent US20200190062A1

test system: U-87MG; assay: Inhibition of cancer cell proliferation (MTT); type: cell-based, human; details: Homo sapiens, U-87 MG, 72 h
METRIC NAME: GI50 (nM)

Recorded results for 5 compounds are shown here.
COMPOUND	QUANTITATIVE RESULT
Nc1nc(-c2nc(-c3ccnc(N)c3F)ccc2O)cc(C2CCOCC2)n1 [Example 32]	100
Cc1c(-c2nc(-c3ccnc(N)c3F)ccc2O)nc(N)nc1C1CCN(C(C)C)CC1 [Example 45]	100
CCN1CCC(c2cc(-c3nc(-c4ccnc(N)c4F)ccc3O)nc(N)n2)CC1 [Example 35]	30
Cc1c(-c2nc(-c3ccnc(N)c3F)ccc2O)nc(N)nc1C1CCCN(C(C)C)C1 (centres unmarked) [Example 48]	3820
Nc1nccc(-c2ccc(O)c(-c3ccnc(N)n3)n2)n1 [Example 1]	850

(P) Nc1nccc(-c2nc(-c3ccncc3)ccc2O)n1 [Example 12]
(Q) Nc1cc(-c2ccc(O)c(-c3ccnc(N)n3)n2)ccn1 [Example 10]
(R) CCc1cnc(N)nc1-c1nc(-c2ccnc(N)c2F)ccc1O [Example 56]
(S) CC(C)N1CCCC(c2cc(-c3nc(-c4ccnc(N)c4F)ccc3O)nc(N)n2)C1 (centres unmarked) [Example 41]
Arrange the 4 compounds by rising GI50, starting with the smallest. Respond with an ordered listing of the labels, as requested.
S, R, Q, P

(a) CCCN1CCCC(c2nc(N)nc(-c3nc(-c4ccnc(N)c4F)ccc3O)c2C)C1 (centres unmarked) [Example 47]
(b) CNc1nc(-c2nc(-c3ccnc(N)c3F)ccc2O)cc(C2CCN(C)CC2)n1 [Example 59]
(c) CCCN1CCCC(c2cc(-c3nc(-c4ccnc(N)c4F)ccc3O)nc(N)n2)C1 (centres unmarked) [Example 40]
(d) Nc1nccc(-c2nc(-c3cccc(N)c3F)ccc2O)n1 [Example 18]
(e) Nc1nc(-c2nc(-c3ccnc(N)c3F)ccc2O)cc(C2CCNCC2)n1 [Example 33]
Put these in order: smallest GI50 first, largest last. Answer format: the labels, ordered as requested.
c, b, e, a, d
(c: 20 nM, b: 70 nM, e: 150 nM, a: 1090 nM, d: 5860 nM)

(P) CCCc1c(-c2nc(-c3ccnc(N)c3F)ccc2O)nc(N)nc1C1CCN(C(C)C)CC1 [Example 50]
(Q) Nc1nccc(-c2nc(-c3ccnc(N)c3O)ccc2O)n1 [Example 21]
(R) CC(C)N1CCC(c2cc(-c3nc(-c4ccnc(N)c4F)ccc3O)nc(N)n2)CC1 [Example 37]
Order the records so the highest GI50 appears first and the lowest last. Thanks in advance for listing the labels in the requested order.
Q, P, R

(A) CC(C)c1cnc(N)nc1-c1nc(-c2ccnc(N)c2F)ccc1O [Example 58]
(B) Cc1cnc(N)nc1-c1nc(-c2ccnc(N)c2F)ccc1O [Example 55]
(C) Nc1nccc(-c2nc(-c3ccncc3F)ccc2O)n1 [Example 14]
Place the items in sequence of falling GI50. Write the labels out in the order the request specifies.
C, B, A
(C: 3410 nM, B: 110 nM, A: 60 nM)
